Examples of molecules with documented IC50 follow.
target: indoleamine 2, 3-dioxygenase (IDO1) (Homo sapiens); test: PBMC IDO1 assay (kynurenine via mass spectrometry); assay type: cell-based; conditions: human PBMC stimulated with IFN-γ and LPS, 2 days, kynurenine by mass spectrometry; recorded as pIC50; read-out: PBMC PXC50_ (converted)
Sequence (P14902 whole entry): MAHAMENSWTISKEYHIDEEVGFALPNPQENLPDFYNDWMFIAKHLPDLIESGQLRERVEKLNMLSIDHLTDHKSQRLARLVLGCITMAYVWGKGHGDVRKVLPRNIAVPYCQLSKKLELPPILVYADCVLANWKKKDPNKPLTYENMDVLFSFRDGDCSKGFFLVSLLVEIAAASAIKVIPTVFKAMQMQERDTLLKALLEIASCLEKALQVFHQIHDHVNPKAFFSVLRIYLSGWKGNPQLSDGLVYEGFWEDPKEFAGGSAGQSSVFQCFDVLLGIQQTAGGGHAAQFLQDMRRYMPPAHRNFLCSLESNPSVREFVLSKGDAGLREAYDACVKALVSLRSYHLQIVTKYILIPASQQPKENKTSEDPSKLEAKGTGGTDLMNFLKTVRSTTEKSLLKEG
Your answer is read as nM, so omit the unit and give the number.

Study these solved cases before continuing.
MOLECULE | READOUT_UNIT | IC50
O=C(NC(c1ccncc1)C1CCN(C(=O)Oc2ccccn2)CC1)c1ccc(F)cc1 (stereo not shown) [Example 96] | nM | 1260
CC(C)C[C@H](NC(=O)c1ccc(Cl)s1)C1CCN(C(=O)Oc2ccccc2)CC1 [Example 58] | nM | 39.8
Cc1ccc(C(=O)NC(C2CC2)C2CCN(C(=O)Oc3c(C)ncnc3C)CC2)s1 (stereo in doubt) [Example 113] | nM | 12.6

Consider the additional molecule presented here.
INPUT: So what does the record say about IC50 for COc1cc(OC(=O)N2CCC(C(NC(=O)c3ccc(F)cc3)C3CC3)CC2)ccn1 (stereo not shown) [Example 86] ?
OUTPUT: 631
